These entries and their values trace back to the supplement of paper PMC10307832.

test system: H3255; assay: relative viability (nuclei count vs DMSO), 5 days (fraction); higher = more cells survive; settings: first compound 0.006325 µM
Listed next: entries and their corresponding relative viability.

compound="CCNC(=O)c1noc(-c2cc(C(C)C)c(O)cc2O)c1-c1ccc(CN2CCOCC2)cc1 [Luminespib] + O=C(c1cc(Cc2n[nH]c(=O)c3ccccc23)ccc1F)N1CCN(C(=O)C2CC2)CC1 [Olaparib] (partner 8 µM)" quantity_measured="relative viability" observed=0.521
compound="CCNC(=O)c1noc(-c2cc(C(C)C)c(O)cc2O)c1-c1ccc(CN2CCOCC2)cc1 [Luminespib] + CS(=O)(=O)N1CCN(Cc2cc3nc(-c4cccc5[nH]ncc45)nc(N4CCOCC4)c3s2)CC1 [Pictilisib] (partner 1 µM)" quantity_measured="relative viability" observed=0.474
compound="CCNC(=O)c1noc(-c2cc(C(C)C)c(O)cc2O)c1-c1ccc(CN2CCOCC2)cc1 [Luminespib] + COc1cccc2cc(-c3nc([C@H]4CC[C@H](C(=O)O)CC4)n4ncnc(N)c34)[nH]c12 [OSI-027] (partner 0.5 µM)" quantity_measured="relative viability" observed=0.628

Kindly review the next compound as well.
What measured relative viability is associated with CCNC(=O)c1noc(-c2cc(C(C)C)c(O)cc2O)c1-c1ccc(CN2CCOCC2)cc1 [Luminespib] + Cc1nc(Nc2ncc(C(=O)Nc3c(C)cccc3Cl)s2)cc(N2CCN(CCO)CC2)n1 [Dasatinib] (partner 0.075 µM) on H3255?
0.311
